Just for reference, patent US20110166062A1 is where these values come from.

Give measured EC50 at Glucagon Receptor for each item. Keep answers brief.
# Measured on: glucagon receptor (UniProt P47871 26-477, limits assumed)
# Sequence (P47871 26-477 limits assumed): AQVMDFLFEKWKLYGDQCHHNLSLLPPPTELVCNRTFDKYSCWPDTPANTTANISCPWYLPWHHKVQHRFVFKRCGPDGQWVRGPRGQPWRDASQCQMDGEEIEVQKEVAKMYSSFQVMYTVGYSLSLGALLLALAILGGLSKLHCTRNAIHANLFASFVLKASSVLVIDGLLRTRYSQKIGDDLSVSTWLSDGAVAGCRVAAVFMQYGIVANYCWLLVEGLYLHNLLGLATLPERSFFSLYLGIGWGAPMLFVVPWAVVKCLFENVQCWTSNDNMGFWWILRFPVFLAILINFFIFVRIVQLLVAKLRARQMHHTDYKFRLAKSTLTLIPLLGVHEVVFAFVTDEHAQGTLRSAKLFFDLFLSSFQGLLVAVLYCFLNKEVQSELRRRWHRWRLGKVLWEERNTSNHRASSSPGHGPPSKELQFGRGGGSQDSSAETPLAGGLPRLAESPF
# Experiment summary: cell-based or functional assay
Where no end group is shown, it is not given here. [ ]: non-standard residue; d: D form. The star is where a group is joined. Met(O) = CS(=O)CC[C@H](N)C(=O)O; Nle = CCCC[C@H](N)C(=O)O; Orn = NCCC[C@H](N)C(=O)O; Dab = NCC[C@H](N)C(=O)O; Dap = NC[C@H](N)C(=O)O; Aib = CC(C)(N)C(=O)O; Carbamoyl = NC(=O)*

Answered cases to consult:
INSERT INTO assay_data (binder, endpoint_label, reported_result) VALUES
  ('HS[Dab](Ac)GTFTSDYSKYLD[Aib]RRAADFVAWLMDE [Peptide K backbone with Dab(Ac) at position 3]', 'EC50 at Glucagon Receptor', '0.07 nM'),
  ('HS[Dap](Carbamoyl)GTFTSDYSKYLDTRRAAEFVAWL[Nle]DE [Peptide J backbone with Dap(urea) at position 3]', 'EC50 at Glucagon Receptor', '0.48 nM'),
  ('HS[Dab](Ac)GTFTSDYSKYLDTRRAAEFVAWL[Nle]DE [Peptide J backbone with Dab(Ac) at position 3]', 'EC50 at Glucagon Receptor', '0.31 nM');

Each binder below has a reported value. Please supply its EC50 at Glucagon Receptor.
1. HS[Met(O)]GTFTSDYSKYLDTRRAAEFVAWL[Nle]DE [Peptide J backbone with M(O) at position 3]
2. HS[Orn](Ac)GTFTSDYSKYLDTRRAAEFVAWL[Nle]DE [Peptide J backbone with Orn(Ac) at position 3]

0.91 nM
0.92 nM
